The reported measurements were obtained from patent US9102591B2.

The molecules listed here are annotated with their IC50.
# assayed target: P2X7 receptor (Homo sapiens (Human), UniProt Q99572)
# Sequence (Q99572 whole entry): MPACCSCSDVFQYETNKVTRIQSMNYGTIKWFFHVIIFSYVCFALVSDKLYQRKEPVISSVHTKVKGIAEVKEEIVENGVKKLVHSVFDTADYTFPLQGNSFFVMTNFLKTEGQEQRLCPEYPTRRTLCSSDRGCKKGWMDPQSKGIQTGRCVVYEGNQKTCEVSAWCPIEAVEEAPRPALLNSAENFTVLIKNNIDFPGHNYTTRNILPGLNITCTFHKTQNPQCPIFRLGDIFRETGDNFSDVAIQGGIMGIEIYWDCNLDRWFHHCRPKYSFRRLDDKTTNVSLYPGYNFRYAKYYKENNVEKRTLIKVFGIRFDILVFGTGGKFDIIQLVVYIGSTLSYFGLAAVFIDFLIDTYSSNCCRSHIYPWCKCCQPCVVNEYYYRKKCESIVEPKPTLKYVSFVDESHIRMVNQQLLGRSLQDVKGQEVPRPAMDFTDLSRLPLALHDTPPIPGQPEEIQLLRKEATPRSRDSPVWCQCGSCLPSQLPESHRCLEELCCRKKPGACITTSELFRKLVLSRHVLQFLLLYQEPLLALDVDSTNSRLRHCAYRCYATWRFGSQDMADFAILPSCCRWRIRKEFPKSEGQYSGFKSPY
# experimental details: P2X7 FLIPR assay (BzATP-stimulated calcium fluorescence, antagonist IC50)
# Type: cell-based
endpoint label: IC50 (nM)

INSERT INTO results (molecule, endpoint_label, readout_value) VALUES
  ('O=C(NCC(CC1(C(F)F)CC1)c1ccc(C(F)(F)F)nc1)c1cccc(Cl)c1Cl (stereo not drawn)', 'IC50', 1.6),
  ('COc1cccc(C(=O)NCC(CC2CC2)c2ccc(C(F)F)nc2)c1Cl (single isomer, unassigned; (+))', 'IC50', 4.4),
  ('O=C(NCC(CC1CC1)c1cnc(C(F)(F)F)nc1)c1ccccc1Cl (stereo not drawn) [2-chloro-N-(3-cyclopropyl-2-(2-(trifluoromethyl)pyrimidin-5-]', 'IC50', 13);

----------
# assayed target: P2X7 receptor (Homo sapiens (Human), UniProt Q99572)
# experimental details: P2X7 FLIPR assay (BzATP-stimulated calcium fluorescence, antagonist IC50)
# Type: cell-based
endpoint label: log10(IC50) (log10 of the value in nM)

INSERT INTO results (compound, endpoint_label, readout_value) VALUES
  ('O=C(NCC(c1ccc(F)cc1)c1ccc(C(F)(F)F)nc1)c1cccc(Cl)c1Cl (single isomer, unassigned; (-)) [(−)2,3-dichloro-N-[2-(4-fluorophenyl)-2-[6-(trifluoromethyl)]', 'log10(IC50)', 0.97),
  ('O=C(NCC(CC1(C(F)(F)F)CC1)c1ccc(C2CC2)nc1)c1cccc(Cl)c1Cl (stereo not drawn)', 'log10(IC50)', 1.18),
  ('O=C(NCC(c1cnc(C(F)(F)F)nc1)C1CCOCC1)c1cccc(F)c1Cl (single isomer, unassigned; (+)) [(+)2-chloro-3-fluoro-N-[2-tetrahydropyran-4-yl-2-[2-(trifluo]', 'log10(IC50)', 1.51),
  ('Cc1cccc(C(=O)NCC2(c3ccc(C(F)(F)F)nc3)CCC(F)(F)CC2)c1Cl', 'log10(IC50)', -0.27),
  ('O=C(NCC(c1ccc(C(F)(F)F)nc1)C1CC1)c1cccc(Cl)c1Cl (stereo not drawn)', 'log10(IC50)', 2.08),
  ('O=C(NCC(c1cnc(C(F)(F)F)nc1)C1CCOCC1)c1c(F)cccc1Cl (single isomer, unassigned; (+)) [(+)2-chloro-6-fluoro-N-[2-tetrahydropyran-4-yl-2-[2-(trifluo]', 'log10(IC50)', 1.75);

----------
# assayed target: P2X7 receptor (Homo sapiens (Human))
# experimental details: P2X7 FLIPR assay (BzATP-stimulated calcium fluorescence, antagonist IC50)
# Type: cell-based
pIC50: −log10 of the molar value.
endpoint label: pIC50

INSERT INTO results (compound, readout_value) VALUES
  ('O=C(NCC(CC1CC1)c1ccc(C(F)F)nc1)c1ccccc1Cl (single isomer, unassigned; (-)) [(−)2-chloro-N-[3-cyclopropyl-2-[6-(difluoromethyl)-3-pyridyl]', 7.77),
  ('O=C(NCC(c1ccncc1)c1ccc(C(F)(F)F)nc1)c1ccccc1Cl (centres unmarked)', 7.96),
  ('O=C(NCC(c1ccc(Cl)cc1)C1CCOCC1)c1cccc(F)c1Cl (centres unmarked)', 7.82),
  ('O=C(NCC(CC1CC1)c1ccc(C(F)(F)F)nc1)c1cccc(C(F)(F)F)c1Cl (single isomer, unassigned; (-)) [(−)2-chloro-N-[3-cyclopropyl-2-[6-(trifluoromethyl)-3-pyridy]', 6.96),
  ('O=C(NCC(c1ccccc1)c1ccnnc1)c1cccc(Cl)c1Cl (centres unmarked)', 7.03);

----------
The compounds listed here are annotated with their log10(IC50).
# assayed target: UniProt:Q99572
# experimental details: P2X7 FLIPR assay (BzATP-stimulated calcium fluorescence, antagonist IC50)
# Type: cell-based
endpoint label: log10(IC50) (log10 of the value in nM)

INSERT INTO results (compound, readout_value) VALUES
  ('O=C(NCC(CC1(C(F)(F)F)CC1)c1cnc(C(F)(F)F)nc1)c1cccc(Cl)c1Cl (single isomer, unassigned; (+)) [(+)2,3-dichloro-N-[3-[1-(trifluoromethyl)cyclopropyl]-2-[2-(]', 0.20),
  ('O=C(NCC(c1ccc(F)cc1)c1ccc(C(F)(F)F)nc1)c1ccccc1Cl (single isomer, unassigned; (-)) [(−)2-chloro-N-[2-(4-fluorophenyl)-2-[6-(trifluoromethyl)-3-p]', 0.49),
  ('Cc1ncc(C(CNC(=O)c2ccccc2Cl)C2CCOCC2)cn1 (single isomer, unassigned; (-)) [(−)2-chloro-N-[2-(2-methylpyrimidin-5-yl)-2-tetrahydropyran-]', 2.76),
  ('O=C(NCC(CC1(C(F)(F)F)CC1)c1ccc(C(F)(F)F)nc1)c1ccccc1F (stereo not shown)', 2.63),
  ('O=C(NCC(CC1CC1)c1cnc(C(F)(F)F)nc1)c1ccccc1Cl (single isomer, unassigned; (+)) [(+)2-chloro-N-[3-cyclopropyl-2-[2-(trifluoromethyl)pyrimidin]', 1.58),
  ('O=C(NCC1(c2ccc(C(F)(F)F)nc2)CCC(F)(F)CC1)c1cccc(F)c1Cl', 0.15),
  ('CC(CNC(=O)c1cccc(F)c1Cl)(CC1CC1)c1cnc(C(F)(F)F)nc1 (single isomer, unassigned; (+)) [(+)2-chloro-N-[3-cyclopropyl-2-methyl-2-[2-(trifluoromethyl)]', 2.56);
